Values from patent US8501955B2

- test.system: purified human recombinant GK (Homo sapiens, UniProt P35557)
- Sequence (P35557 whole entry): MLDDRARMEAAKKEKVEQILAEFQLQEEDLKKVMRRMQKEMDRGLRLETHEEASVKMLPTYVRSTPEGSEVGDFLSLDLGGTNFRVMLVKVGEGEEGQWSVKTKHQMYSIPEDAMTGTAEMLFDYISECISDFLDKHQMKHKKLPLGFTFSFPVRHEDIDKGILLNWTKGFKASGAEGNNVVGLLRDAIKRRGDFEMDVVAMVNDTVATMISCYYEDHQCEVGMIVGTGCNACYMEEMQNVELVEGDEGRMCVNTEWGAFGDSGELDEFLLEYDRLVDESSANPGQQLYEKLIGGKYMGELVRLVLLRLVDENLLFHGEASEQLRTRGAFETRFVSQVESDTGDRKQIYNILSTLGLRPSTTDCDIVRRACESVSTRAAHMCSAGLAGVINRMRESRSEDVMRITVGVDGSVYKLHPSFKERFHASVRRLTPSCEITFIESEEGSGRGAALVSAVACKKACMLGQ
- experiment.description: Glucokinase activity assay (coupled enzymatic GK/G6PD assay, NADH absorbance at 340 nm)
- Type: biochemical
- condition.context: Emax of % change in S0.5; vehicle S0.5 = 0%, 0 mM glucose = 100%; read-out: % Emax (with respect to % ΔS0.5)
Emax values by entry
Give the value in % but do not write % after it.

[[record]]
compound = "Cc1cnc(NC(=O)C(Oc2ccc(Cl)cc2F)c2ccc(S(=O)(=O)C3CC3)cc2)s1 (stereo not shown)"
endpoint_unit = "%"
val = 95

[[record]]
compound = "O=C(Nc1ncc(F)s1)C(Oc1ccc(Cl)cc1F)c1ccc(S(=O)(=O)C2CC2)cc1 (stereo not shown)"
endpoint_unit = "%"
val = 95

[[record]]
compound = "O=C(O)Cc1ccc(Oc2cnc(NC(=O)C(OC3CCOCC3)c3ccc(S(=O)(=O)C4CC4)cc3)s2)cc1 (stereo not shown)"
endpoint_unit = "%"
val = 91


Consider the additional compound presented here.
Request: Any idea what its Emax is? The compound is O=C(O)c1ccc(Oc2cnc(NC(=O)C(Oc3ccc(F)cc3F)c3ccc(S(=O)(=O)N4CCCCC4)cc3)s2)cc1 (stereo not shown)
Result: 90

* * *

Listed molecules paired with reported Emax
- test.system: purified human recombinant GK (Homo sapiens)
- experiment.description: Glucokinase activity assay (coupled enzymatic GK/G6PD assay, NADH absorbance at 340 nm)
- Type: biochemical
- condition.context: Emax of % change in S0.5; vehicle S0.5 = 0%, 0 mM glucose = 100%; read-out: % Emax (with respect to % ΔS0.5)
Give your result in % as a bare value.

Here are 4 molecules together with their reported answers.
[[record]]
molecule = "O=C(Nc1nncs1)C(Oc1ccc(F)cc1F)c1ccc(S(=O)(=O)C2CCCC2)cc1 (stereo not drawn)"
measured_attribute = "Emax"
val = 90

[[record]]
molecule = "CC(=O)Nc1cccc(OC(C(=O)Nc2ncc(F)s2)c2ccc(S(=O)(=O)C3CC3)cc2)c1 (stereo not drawn)"
measured_attribute = "Emax"
val = 90

[[record]]
molecule = "O=C(Nc1nncs1)C(Oc1ccc(F)cc1F)c1ccc(S(=O)(=O)C2CC2)cc1 (stereo not drawn)"
measured_attribute = "Emax"
val = 90

[[record]]
molecule = "O=C(Nc1ncc(F)s1)C(Oc1ccc(F)cc1F)c1ccc(S(=O)(=O)C2CCCC2)cc1 (stereo not drawn)"
measured_attribute = "Emax"
val = 95


Request: Which measured Emax value corresponds to O=C(Nc1cc[nH]n1)C(Oc1ccc(F)cc1F)c1ccc(S(=O)(=O)C2CCCC2)c(Cl)c1 (stereo not drawn) ?
Result: 90

Request: Sample Cn1ccc(NC(=O)C(Oc2ccc(Cl)cc2F)c2ccc(S(=O)(=O)C3CC3)cc2)n1 (stereo not drawn) — what was its Emax?
Result: 90

Request: Please look up its Emax: O=C(Nc1ccc(Cl)cn1)C(Oc1ccc(Cl)cc1F)c1ccc(S(=O)(=O)C2CC2)cc1 (stereo not drawn)
Result: 90

* * *

- test.system: purified human recombinant GK (Homo sapiens, UniProt P35557)
- experiment.description: Glucokinase activity assay (coupled enzymatic GK/G6PD assay, NADH absorbance at 340 nm)
- condition.context: EC50 of % change in S0.5 of glucokinase for glucose, sigmoidal fit; read-out: EC50 (with respect to % ΔS0.5)
Here, each record is paired with measured pEC50 data.
Just the number, please; pEC50 means minus log10 of the concentration in mol/L.

[[record]]
compound = "O=C(O)c1ccc(Oc2cnc(NC(=O)C(O[C@@H]3CCOC3)c3ccc(S(=O)(=O)C4CC4)cc3)s2)cc1 (single isomer, unassigned)"
val = 7.66


Request: I have this compound here, O=C(O)Cc1csc(NC(=O)C(Oc2ccc(F)cc2F)c2ccc(S(=O)(=O)C3CC3)cc2)n1 (single isomer, unassigned; (+)) [Example F3] , and I need its recorded pEC50.
Result: 5.61

Request: So what does the record say about pEC50 for O=C(O)c1ccc(Oc2cnc(NC(=O)C(Oc3ccc(F)cc3F)c3ccc(S(=O)(=O)N4CCCCC4)cc3)s2)cc1 (stereo not shown) ?
Result: 6.55

Request: Could you tell me which pEC50 is on file for CC(=O)Nc1cccc(OC(C(=O)Nc2ncc(F)s2)c2ccc(S(=O)(=O)C3CC3)cc2)c1 (stereo not shown) ?
Result: 6.23

Request: Look up pEC50 for this compound: O=C(Nc1ncc(F)s1)C(Oc1ccc(F)cc1F)c1ccc(S(=O)(=O)C2CCCC2)c(Cl)c1 (stereo not shown)
Result: 6.96

Request: GET /values?readout=pEC50&item= O=C(Nc1ncc(F)s1)C(Oc1ccc2[nH]ccc2c1)c1ccc(S(=O)(=O)C2CC2)cc1 (stereo not shown)
Result: 6.19

Request: Which pEC50 is listed for O=C(O)Cc1nc(NC(=O)C(Oc2ccc3[nH]ccc3c2)c2ccc(S(=O)(=O)C3CC3)cc2)sc1Cl (stereo not shown) ?
Result: 5.48
